system: THP-1 viability, CellTiter-Glo luminescence, 72 h; experiment: PubChem AID 2252
observed-property: EC50

Record excerpt, results attached:
Cc1[nH]c2ccc(OC(F)(F)F)cc2c1CCNCc1ccc(Cl)cc1	4.99 µM
CCc1ccc(Nc2n[n+](-c3ccccc3)c(-c3c(Cl)cccc3Cl)s2)cc1	3.75 µM
CC1CC(C)CN(C(=O)c2ccc(NC(=O)c3ccc(=O)[nH]c3)cc2)C1 (stereo not given)	33 µM
O=[N+]([O-])/C=C/c1cc2ccccc2[nH]1	44.9 µM
CCCCn1c(NCc2ccccc2NS(=O)(=O)c2ccc(C)cc2)nc2ccccc21	24.3 µM
O=C(N/N=C/c1cc(Br)ccc1O)c1ccccc1Cl	1.49 µM
Cc1cc(N/N=C/c2ccc(O)cc2)c2cccc(C)c2n1	7.3 µM
Clc1ccc2[nH]c3c(c2c1)CCc1cn[nH]c1-3	31.3 µM

Param item = Nc1cccc2nc3ccccc3cc12 ; retrieve measured EC50.
5.32 µM

Dear colleague, I am looking for the recorded EC50 of the following compound: CO[C@H]1C=CO[C@@]2(C)Oc3c(C)c(O)c4c(O)c(c(C=NN5CCN(C)CC5)c(O)c4c3C2=O)NC(=O)C(C)=CC=C[C@H](C)[C@H](O)[C@@H](C)[C@@H](O)[C@@H](C)[C@H](OC(C)=O)[C@@H]1C
42.4 µM

---

test system: THP-1 viability, CellTiter-Glo luminescence, 72 h; assay: PubChem AID 2252
pEC50: −log10 of the molar value.
Note to self: values exactly at 5 are condition met. So pEC50 at or above 5 is condition met, below is condition not met.

Cc1ccc(C)c(NC(=O)c2ccccc2O)c1	condition not met
c1ccc2c(c1)CCN(c1nc3ccccc3n3cnnc13)C2	condition not met
CN(C)c1ccc(Nc2nc(N)c3ccccc3n2)cc1	condition met

Entry Cc1c(CCN)ccc2c1[nH]c1ccccc12 : is its pEC50 no less than 5?
condition not met

Is reported pEC50 greater than or equal to 5 here: C=CCn1c(NS(=O)(=O)c2ccccc2)c(S(=O)(=O)c2ccc(C)cc2)c2nc3ccccc3nc21
condition not met

Exam item: decide whether the reported pEC50 for COc1ccccc1C(=O)NNC1=C(C(=O)C(F)(F)F)CCC1 is at least 5.
condition not met

pEC50 >= 5 for CCCCCCCCCCOC(=O)Cn1c(COc2ccccc2OC)[n+](C)c2ccccc21 ?
condition met

Please check the record CN1CCN(CC(=O)N2CCn3c4c(c5cc(C6CCCCC6)ccc53)CCCC42)CC1 (stereo not given) and state if its pEC50 is at or above 5.
condition met

Is reported pEC50 greater than or equal to 5 here: COc1ccc(/C=C/c2cc(-c3ccc(C)cc3)o[n+]2C)cc1
condition met

# check: pEC50 of C[C@H]1c2cccc(O)c2C(O)=C2C(=O)C3(O)C(O)=C(C(N)=O)C(=O)[C@@H](N(C)C)[C@@H]3[C@@H](O)[C@@H]21 (stereo not given in full) is greater than or equal to 5
condition not met

---

EC50 overview
tested on: THP-1 viability, CellTiter-Glo luminescence, 72 h; experiment: PubChem AID 2252

O=C(C[n+]1cc(Br)cc2ccccc21)c1ccc(F)cc1	< 0.1 µM
COc1cc2c(cc1OC)[C@H](Cc1ccc(O)cc1)NCC2	23.4 µM
Cc1ccc(C(C)C)c(OCCNC(=O)c2ccccc2O)c1	32.5 µM

Could you share which EC50 value was measured for C/C(=N\NC(=O)c1ccccc1O)c1cccs1 ?
22.7 µM

---

system: THP-1 viability, CellTiter-Glo luminescence, 72 h; experiment: PubChem AID 2252
observed-property: EC50

Example compounds with recorded EC50:
CCN1CCN(Cc2ccc(NC(=O)c3cc(NC(=O)c4cc(-c5ccc(OC)cc5)n[nH]4)cc(OC)c3)cc2C(F)(F)F)CC1	3.92 µM
C/C(=N\NC(=O)c1ccc(CN2CCc3ccccc3C2)cc1)c1ccccc1O	7.89 µM

Identify the measured EC50 of CCc1nn(CCCN2CCN(c3cccc(Cl)c3)CC2)c(=O)n1CCOc1ccccc1 for THP-1 viability, CellTiter-Glo luminescence, 72 h.
42.4 µM

Requested read-out EC50, target or system THP-1 viability, CellTiter-Glo luminescence, 72 h, entry CCn1nnc(NC(=O)c2ccc([N+](=O)[O-])o2)n1
13.6 µM

API: value(readout= EC50, system= THP-1 viability, CellTiter-Glo luminescence, 72 h, query= COC(=O)c1cc(CSC(=N)N)ccc1OCCC(C)C )
14.7 µM

Under THP-1 viability, CellTiter-Glo luminescence, 72 h: EC50 value of Cn1c(-c2ccc3c(c2)OCO3)cnc1NCc1ccc(Cl)cc1 ?
28.8 µM

---

Attribute: EC50
system: THP-1 viability, CellTiter-Glo luminescence, 72 h; assay: PubChem AID 2252

O=[N+]([O-])c1cc(Cl)c2cccnc2c1O	28.7 µM
OCCN1CCN(C2CCC(c3ccc(F)cc3)c3ccc(F)cc32)CC1 (stereo not given)	9.55 µM
OCCCCNCc1ccc(OCc2ccc(Cl)cc2Cl)cc1	9.8 µM
COc1ccc(Nc2cc(C)c3c(O)cccc3n2)cc1	8.86 µM
COc1ccc(Nc2nc(-c3ccccc3)nc3ccccc23)cc1S(=O)(=O)N1CCOCC1	39 µM

Quick check: EC50 on THP-1 viability, CellTiter-Glo luminescence, 72 h, item CC(C)NC(=O)CN1CCN(Cc2nc(C(c3ccccc3)c3ccccc3)no2)CC1 ?
< 0.1 µM

// map OC(CNCCc1ccc(Cl)cc1Cl)COc1ccccc1 (stereo not given) to recorded EC50 (system: THP-1 viability, CellTiter-Glo luminescence, 72 h)
29.2 µM

Enter reported EC50 observed with THP-1 viability, CellTiter-Glo luminescence, 72 h for CNCCCN1c2ccccc2CCc2ccccc21
40.4 µM

Return EC50 measured with THP-1 viability, CellTiter-Glo luminescence, 72 h given this compound: Cc1ccc(Cn2c(=N)c(C(=O)NCc3ccco3)cc3c(=O)n4ccccc4nc32)cc1
42.6 µM

For the record C[C@H]1c2cccc(O)c2C(O)=C2C(=O)[C@]3(O)C(O)=C(C(N)=O)C(=O)[C@@H](N(C)C)[C@@H]3[C@@H](O)[C@@H]21 , what value of EC50 is listed for THP-1 viability, CellTiter-Glo luminescence, 72 h?
29 µM

---

tested on: THP-1 viability, CellTiter-Glo luminescence, 72 h; experiment: PubChem AID 2252
pEC50: −log10 of the molar value.
observed-property: pEC50

// solved cases for pEC50 follow
O=C(CSc1ccccn1)N/N=C/c1cc([N+](=O)[O-])ccc1O	4.67
CCN1/C(=C/C=C/C=C/c2sc3ccccc3[n+]2CC)Sc2ccccc21	5.11
O=[N+]([O-])c1cc(O)c2ncccc2c1	5.24

Lab note: next compound to report on.
Given the compound C/C(=N/Nc1ccnc2cc(Cl)ccc12)c1ccc(N)cc1 , what is its reported pEC50?
5.08

---

test system: THP-1 viability, CellTiter-Glo luminescence, 72 h; test: PubChem AID 2252
Items are presented alongside their recorded EC50.

Use the examples below as a reference point.
CCn1cc(C(=O)O)c(=O)c2cc(F)c(N3CCN(S(=O)(=O)c4ccc(NC(C)=O)cc4)CC3)cc21	47.2 µM
COc1ccc(C(=O)NC(=S)NNC(=O)c2cccnc2)cc1	21.4 µM

Query: EC50; subject: O=C(CCl)NC1CCCc2ccccc21 (stereo unspecified)
25.7 µM

Param item = CC(=O)c1cc(O)c2ccccc2c1O ; retrieve measured EC50.
41.2 µM

What EC50 value was documented for this compound, CN(C)CCCN1c2ccccc2CCc2ccc(Cl)cc21 ?
18.4 µM

Sample CSc1nc2cc(Oc3cccc(Cl)c3Cl)c(Cl)cc2[nH]1 — what was its EC50?
43.9 µM

---

tested on: THP-1 viability, CellTiter-Glo luminescence, 72 h; assay: PubChem AID 2252
pEC50: −log10 of the molar value.
Threshold rule: pEC50 greater than or equal to 5 is t; below that, f.

Item CCOc1ccc(-c2nc(N)ncc2-c2ccccc2)c(O)c1 with pEC50 of 5 or above?
f

pEC50 >= 5 for O=C(Nc1nnc(-c2cccs2)o1)c1cccc(F)c1 ?
f

Evaluate COc1cccc(-c2nnc(NC(=O)c3ccc(Cl)s3)o2)c1 : pEC50 at minimum 5?
f

Confirm if pEC50 reported for the compound O=C(Nc1c(Cl)ccc2nsnc12)c1ccc([N+](=O)[O-])o1 is 5 or above.
t

Item OCCNc1nc(Nc2ccc(Br)cc2)nc2ccccc12 with pEC50 of 5 or above?
t

Given O=C(CSc1ccccn1)Nc1nonc1[N+](=O)[O-] , state whether its pEC50 is at least 5.
t

// inclusive: pEC50 at least 5? input: N#C/C(=C\c1ccc(O)c(O)c1)C(=O)NCc1ccccc1
f

Exam item: decide whether the reported pEC50 for CCCCCCCCCCC[N+](C)(C)CC/C=C1/c2ccccc2Sc2ccc(Cl)cc21 is at least 5.
t

I'd appreciate it if you could say whether O=C(CC(=O)c1ccccc1O)c1cccc(F)c1 has pEC50 at least equal to 5.
f

Tell me whether pEC50 is at least 5 here: CCN(CC)CCNc1nc(-c2ccc(OC)cc2)c(-c2ccc(OC)cc2)s1
f

Is pEC50 at least 5? Consider Cc1cccn2c(=O)c(C=O)c(Cl)nc12
f

Could you verify whether the entry O=C(CCN1CCN(C(=O)c2ccccc2)CC1)c1ccc(Br)cc1 shows pEC50 of no less than 5?
f

Please check the record COc1cc(CNCCc2ccccc2)cc(Cl)c1OCc1ccccc1 and state if its pEC50 is at or above 5.
f

Quick check, pEC50 >= 5? CCCCCN=C(N)N/N=C/c1c[nH]c2ccc(OC)cc12
t

Is reported pEC50 greater than or equal to 5 here: CCOC(=O)c1c(-c2ccccc2)oc2ccc(OCC(O)CNCCN(C)C)cc12 (stereo unspecified)
t

Is it the case that CC1Cc2ccccc2N1S(=O)(=O)c1cccc(C(=O)N2CC(=O)Nc3ccccc32)c1 (stereo unspecified) has pEC50 reaching or exceeding 5?
f

Hello, I need to know if CCCCCOc1ccc(CSC(=N)N)cc1[N+](=O)[O-] has measured pEC50 not below 5. Thanks!
f

Does pEC50 meet or surpass 5 for CC(C)(c1ccccc1)c1ccc(OCCCN2CCNCC2)cc1 ?
f

Check the entry O=C(NC(=S)NNC(=O)c1cnccn1)c1ccc(F)cc1 : does pEC50 equal or exceed 5?
t

Kindly determine if pEC50 recorded for COc1ccc(C(=O)NC(=S)NNC(=O)c2cccc(C)c2)cc1 is above or exactly 5.
f
